Reference source: the supplement of paper PMC8975748

tested on: Saccharomyces cerevisiae BY4741 SeMeCo community; test: z-score of subpopulation abundance vs DMSO median, subpopulation auxotrophic for L; higher = larger share of this subpopulation than in DMSO controls; details: 10 µM; 24 h; SM minimal medium; subpopulation (auxotrophy): L
Structures can show the parent of a compound that is named as a salt.
TEST_READOUT: z-score of subpopulation abundance

MOLECULE | TEST_READOUT | ENDPOINT_RESULT
C=CCc1ccc(O)c(-c2ccc(O)c(CC=C)c2)c1 [Honokiol] | z-score of subpopulation abundance | -0.29
Cn1c(=O)c2c(ncn2CC2OCCO2)n(C)c1=O [Doxofylline] | z-score of subpopulation abundance | 0.55
O=C(O)Cc1ccccc1Nc1c(Cl)cccc1Cl [Diclofenac Diethylamine] | z-score of subpopulation abundance | 0.07
O=c1ccn(C2CC(O)C(CO)O2)c(=O)[nH]1 (stereo unspecified) [2-deoxyuridine] | z-score of subpopulation abundance | 1.75
CC(=O)C1C(=O)C=C(C)OC1=O (stereo unspecified) [Sodium dehydroacetate] | z-score of subpopulation abundance | 1.59
CC1CCc2cc(F)cc3c(=O)c(C(=O)O)cn1c23 (stereo unspecified) [Flumequine] | z-score of subpopulation abundance | -0.69
O=C1Nc2ccccc2C1=O [Isatin] | z-score of subpopulation abundance | -0.04
C=C[C@H]1CN2CC[C@H]1C[C@H]2[C@H](O)c1ccnc2ccc(OC)cc12 [Quinine HCl Dihydrate] | z-score of subpopulation abundance | -0.67
C#C[C@]1(O)CC[C@H]2[C@@H]3CCC4=Cc5oncc5C[C@]4(C)[C@H]3CC[C@@]21C [Danazol] | z-score of subpopulation abundance | -0.15
COc1cccc2c1C(=O)c1c(O)c3c(c(O)c1C2=O)C[C@@](O)(C(=O)CO)C[C@@H]3O[C@H]1C[C@H](N)[C@@H](O)[C@H](C)O1 [Epirubicin HCl] | z-score of subpopulation abundance | 1.16
CC1(C)CC[C@]2(C(=O)O)CC[C@]3(C)C(=CC[C@@H]4[C@@]5(C)CC[C@H](O)C(C)(C)[C@@H]5CC[C@]43C)[C@@H]2C1 [Oleanolic Acid] | z-score of subpopulation abundance | -0.03
CO/N=C(\C(=O)N[C@@H]1C(=O)N2C(C(=O)O)=C(CSC(=O)c3ccco3)CS[C@H]12)c1csc(N)n1 [Ceftiofur] | z-score of subpopulation abundance | -0.31
NCC[C@H](O)C(=O)N[C@@H]1C[C@H](N)[C@@H](O[C@H]2O[C@H](CN)[C@@H](O)[C@H](O)[C@H]2O)[C@H](O)[C@H]1O[C@H]1O[C@H](CO)[C@@H](O)[C@H](N)[C@H]1O [Amikacin disulfate] | z-score of subpopulation abundance | 0.46
CCN(CC)CCOc1ccc2c(c1)C(=O)c1cc(OCCN(CC)CC)ccc1-2 [Tilorone dihydrochloride] | z-score of subpopulation abundance | -0.72
CN1[C@@H](CC(=O)c2ccccc2)CCC[C@H]1C[C@H](O)c1ccccc1 [Lobeline hydrochloride] | z-score of subpopulation abundance | -0.58
CN(C)CC(c1ccc(O)cc1)C1(O)CCCCC1 (stereo unspecified) [Desvenlafaxine] | z-score of subpopulation abundance | -0.35
